Taken from patent US9181227B2.

System: human PBM cells
assay name: Cellular toxicity assay, PBM cells
Format: cell-based
condition summary: cytotoxicity IC50, human PBM cells
Protocol: The toxicity of the compounds was assessed in Vero, human PBM, CEM (human lymphoblastoid), MT-2, and HepG2 cells, as described previously (see Schinazi R. F., Sommadossi J.-P., Saalmann V., Cannon D. L., Xie M.-Y., Hart G. C., Smith G. A. & Hahn E. F. Antimicrob. Agents Chemother. 1990, 34, 1061-67). Cycloheximide was included as positive cytotoxic control, and untreated cells exposed to solvent were included as negative controls. […]
measured parameter: Toxicities PBM (µM)
Just the number please, in µM, no unit attached.

Which Toxicities PBM value is on record for COC(=O)N[C@H](C(=O)N1C[C@@H](SC)C[C@H]1c1ncc(-c2ccc(-c3ccc(-c4cnc([C@@H]5C[C@H](SC)CN5C(=O)[C@@H](NC(=O)OC)C(C)C)[nH]4)cc3)cc2)[nH]1)C(C)C ?
15.6

Which Toxicities PBM value is on record for COC(=O)N[C@H](C(=O)N1C[C@H](n2ccnn2)C[C@H]1c1ncc(-c2ccc(-c3ccc(-c4cnc([C@@H]5C[C@@H](n6cc([Si](C)(C)C)nn6)CN5C(=O)[C@@H](NC(=O)OC)C(C)C)[nH]4)cc3)cc2)[nH]1)C(C)C ?
3

Which Toxicities PBM value is on record for COC(=O)N[C@H](C(=O)N1C[C@@H](n2cc(COC(C)=O)nn2)C[C@H]1c1ncc(-c2ccc(-c3ccc(-c4cnc([C@@H]5C[C@H](n6cc(COC(C)=O)nn6)CN5C(=O)[C@@H](NC(=O)OC)C(C)C)[nH]4)cc3)cc2)[nH]1)C(C)C ?
53
